Source of measurements: patent US9315481B2

Tested on: TAIL7 cells
Measurement protocol: standard cell survival assay (ATP assay) of TAIL7 cells
Type: cell-based
Conditions used: Homo sapiens, 96 h
Listing of entries alongside the reported pIC50.
# pIC50: negative log10 of molar concentration; output just the value

Example entries begin here.
INSERT INTO assay_data (structure_smiles, experimental_result) VALUES
  ('CCCC(=CC1=C(OC)C(=O)c2ccccc2C1=O)C(=O)N(CC)CC', 5.38),
  ('CCCC(=CC1=C(OC)C(=O)c2ccccc2C1=O)C(=O)N(C)C', 5.26),
  ('CCCCCCCCC/C(=C\C1=C(C)C(=O)C(OC)=C(OC)C1=O)C(=O)O', 4.53);

// next entry
Suppose we examine the compound COC1=C(C=C(C)C(=O)N(C)C)C(=O)c2ccccc2C1=O ; what pIC50 value has been reported?
5.26

---

As a worked illustration, we turn to pIC50 data collected for Ref-1 (Homo sapiens).
Scale note: pIC50 = -log10(concentration in M).

INSERT INTO assay_data (structure_smiles, measure_name, experimental_result) VALUES
  ('COC1=C(C=C(C)C(=O)N(C)C)C(=O)c2ccccc2C1=O', 'pIC50', 6.00);

Can you look up the measured pIC50 of CCCC(=CC1=C(OC)C(=O)c2ccccc2C1=O)C(=O)N(C)C for me?
5.70

Tell me the measured pIC50 of CCCC(=CC1=C(OC)C(=O)c2ccccc2C1=O)C(=O)N(CC)CC , please.
6.00

---

System: T-ALL lines from a murine model of T-cell leukemia induced by oncogenic Notch
Measurement protocol: ATP viability assay of leukemia cells from murine Notch-induced T-ALL
Type: cell-based
Conditions used: Mus musculus, T-ALL lines from mice with terminal Notch-induced disease
Source text: The compounds described herein are effective against leukemia cells harvested from the bone marrow (BM), thymus (T) or spleen (S). Cells are harvested from the bone marrow (BM), thymus (T) or spleen (S) of mice with terminal Notch (ICN)-induced T-ALL, as determined in a conventional ATP assay (viability at 96 hrs) of the leukemia cells cultured with IL-7. […]
pIC50: −log10 of the molar value.
Measure name: pIC50

Reported pIC50, compound CCCCCCCCC/C(=C\C1=C(C)C(=O)C(OC)=C(OC)C1=O)C(=O)O [Example E3330] : ____
4.52 to 4.70
